// data source = patent US20240279318A1

# SPR binding level per entry
- SYSTEM_UNDER_TEST: group 2: CDC14A, PTP4A1, BRCA2 and RCL1 homologous peptide/HLA-A*02:01 complexes (mixed)
- ASSAY_COMMENT: SPR (BIAcore T200), crude scFv captured, mixed complexes flowed over

>  <BINDER>
25-AS170036 VL1VH1-57K108A (scFv) scFv: QSALTQPRSVSGSPGQSVTISCAGTSSDVGSENYVSWYQQHPGKAPKLMIYQVNKRASGVPDRFSGSKSGNTASLTISGLQAEDEADYYCASYRSSDHNIVFGGGTKLTVLGGGGSGGGGSGGGGSEVQLVESGGGLVQPGGSLRLSCAASGFTFSSYAMSWVRQAPGKGLEWVSTINSGTGKPYYADSVKGRFTISRDNSKNTLYLQMNSLRAEDTAVYYCAKNFFDGSWFLAPPAMDYWGQGTLVTVSSHHHHHH

>  <UNIT>
RU

>  <SPR binding level>
6.3

$$$$
>  <BINDER>
45-AS170036 VL1VH1-56Y98I108S (scFv) scFv: QSALTQPRSVSGSPGQSVTISCAGTSSDVGSENYVSWYQQHPGKAPKLMIYQVNKRASGVPDRFSGSKSGNTASLTISGLQAEDEADYYCASYRSSDINIVFGGGTKLTVLGGGGSGGGGSGGGGSEVQLVESGGGLVQPGGSLRLSCAASGFTFSSYAMSWVRQAPGKGLEWVSTINSGTYSPYYADSVKGRFTISRDNSKNTLYLQMNSLRAEDTAVYYCAKNFFDGSWFLSPPAMDYWGQGTLVTVSSHHHHHH

>  <UNIT>
RU

>  <SPR binding level>
64.7

$$$$
>  <BINDER>
82-AS170036 VL1VH1-57M98Q108A (scFv) scFv: QSALTQPRSVSGSPGQSVTISCAGTSSDVGSENYVSWYQQHPGKAPKLMIYQVNKRASGVPDRFSGSKSGNTASLTISGLQAEDEADYYCASYRSSDQNIVFGGGTKLTVLGGGGSGGGGSGGGGSEVQLVESGGGLVQPGGSLRLSCAASGFTFSSYAMSWVRQAPGKGLEWVSTINSGTGMPYYADSVKGRFTISRDNSKNTLYLQMNSLRAEDTAVYYCAKNFFDGSWFLAPPAMDYWGQGTLVTVSSHHHHHH

>  <UNIT>
RU

>  <SPR binding level>
16.6

$$$$
